targetEntity: sheep brain glutamine synthetase
Format: biochemical
appliedConditions: read-out: Ki L-Ms
measuredMetric: Ki (µM)
Kindly answer with a numeric value in µM, unit omitted.

The recorded Ki for entry CS(=N)(=O)CC[C@H](N)C(=O)O (stereo partly shown) equals 110
